# Test system: IGROV-1
# TEST_DETAILS: NCI tumour cell line growth inhibition, 48 h
Activity calls are given as the source filed them. Rule as the data show it: active = GI50 up to about 1.1 µM and inactive = higher. Non-standard residues stand in square brackets, D forms with d. Residues, ends and D or L forms follow the SMILES beside them. ξ: configuration not given here. *: point of attachment. ξF = NC(Cc1ccccc1)C(=O)O; Cbz = O=C(OCc1ccccc1)*
Log the outcome using a class from yes (1) (active), no (0) (inactive)

Completed entries (count: 4):
[in] Field: outcome | Entry: "C[C@@H](c1ccccc1)N1C[C@@H](c2ccc3c(c2)OCO3)[C@@H]2C(=O)CCC[C@@H]21"
[out] no (0)

[in] Also CCOC(=O)CNC(=O)C(Cc1ccccc1)NC(=O)OCc1ccccc1 (stereo unspecified) (Cbz-[ξF]-Gly-OEt) , if possible.
[out] no (0)

[in] Also CNc1ccc(C(=O)CC(O)CCC(C)C2OC(=O)CC(O)CC(=O)CC(O)CC(O)CC(O)CC(O)CC3(O)CC(O)C(C(=O)NCCN(C)C)C(CC(OC4OC(C)C(O)C(NC(=O)CN5CCN(C)CC5)C4O)\C=C/C=C\C=C/C=C/C=C/C=C\C=C/C2C)O3)cc1 (stereo unspecified) , if possible.
[out] no (0)

[in] Also "COc1cc2c(oc(=O)c3cc4cc([Si](C)(C)C)oc4c(OC)c32)c2cccc(O)c12" , if possible.
[out] no (0)

Next:
[in] Field: outcome | Entry: "CO[C@H]1[C@@H](O)[C@@H](O)O[C@@H](O[C@H]2CC[C@@]3(C)[C@H](CC[C@@H]4[C@@H]3[C@H](O)C[C@]3(C)[C@@H](C5=CC(=O)OC5)CC[C@]43O)C2)[C@@H]1O"
[out] yes (1)

[in] Also COC(=O)C(=O)C(CC(=O)Nc1cccc(C(F)(F)F)c1)C(=O)OC (stereo unspecified) , if possible.
[out] no (0)

---

# System: MDA-N
# TEST_DETAILS: NCI tumour cell line growth inhibition, 48 h
Calls of active or inactive are those of the source. Rule as the data show it: active = GI50 up to about 1.1 µM and inactive = higher.
Provide the recorded GI50 for the entries that follow.

Known GI50 results, listed for orientation:
[in] # get_value(readout='GI50', item= "C/C=C/[C@H](O[Si](C)(C)C(C)(C)C)[C@@H](O)/C=C/C(=O)OCC" )
[out] 19.6 µM (inactive)

[in] Also "C=C1c2nc3ccccc3n2C=C(c2ccc(Cl)cc2)N1c1ccc(OCCN2CCOCC2)cc1" , if possible.
[out] 42.2 µM (inactive)

[in] Also "O=C1/C(=C/c2c(Cl)[nH]c3ccccc23)c2ccccc2N1c1ccccc1" , if possible.
[out] 1.85 µM (inactive)

Next:
[in] # get_value(readout='GI50', item= "COC(=O)C1=C([C@H]2COC(C)(C)O2)[C@H]2C[C@@H]1[C@@H]1OC(C)(C)O[C@@H]12" )
[out] > 100 µM (inactive)

---

# System: LXFL 529
# TEST_DETAILS: NCI tumour cell line growth inhibition, 48 h
Activity calls are given as the source filed them. Cut-off read from the data, not from the text of the source: active = GI50 up to about 1.1 µM and inactive = higher.
ENDPOINT: GI50

Known GI50 results, listed for orientation:
[in] # get_value(readout='GI50', item= "O=S(=O)(O)CS(=O)(=O)OCCCl" )
[out] > 100 µM (inactive)

[in] Also CC(C#N)c1cn(S(=O)(=O)c2ccccc2)c2ccccc12 (stereo not drawn) , if possible.
[out] 34.9 µM (inactive)

[in] Also "CCSCN(C)c1nc(N(C)C)nc(N(C)C)n1" , if possible.
[out] 45.3 µM (inactive)

[in] Also NC1=NC(=O)C(CC(=O)Nc2ccc([N+](=O)[O-])cc2[N+](=O)[O-])S1 (stereo not drawn) , if possible.
[out] > 100 µM (inactive)

[in] Also CCOC(=O)C12C(C(=O)OC)=C(C)N(NC(=O)Nc3ccccc3)C1(N)N(NC(=O)Nc1ccccc1)C(C)=C2C(=O)OC (stereo not drawn) , if possible.
[out] 26.1 µM (inactive)

// each compound listed below needs its GI50
1. CCC/N=C/c1c(O)c(O)c(C(C)C)c2cc(C)c(-c3c(C)cc4c(C(C)C)c(O)c(O)c(/C=N/CCC)c4c3O)c(O)c12
2. Nc1nc(SCc2ccccc2Cl)c2ncn(C3OC(CO)C(O)C3O)c2n1 (stereo not drawn)
3. CCc1cccc(C)c1NC(=O)CCc1nnc2s/c(=C\c3cccc4ccccc34)c(=O)n12

[out]
["3.73 µM (inactive)", "50.9 µM (inactive)", "73.3 µM (inactive)"]

---

# System: 786-0
# TEST_DETAILS: NCI tumour cell line growth inhibition, 48 h
Active and inactive are the calls of the source. Rule as the data show it: active = GI50 up to about 1.1 µM and inactive = higher.
Provide the recorded GI50 for the entries that follow.

Known GI50 results, listed for orientation:
[in] # get_value(readout='GI50', item= "CCn1c(O)c(C(=O)Nc2cccs2)c(=O)n(CC)c1=S" )
[out] 19.6 µM (inactive)

[in] Also O=C(CCN1CCCC1)CC(c1ccccc1)c1c(O)c2ccccc2oc1=O (stereo not drawn) , if possible.
[out] > 100 µM (inactive)

[in] Also "O=c1oc2cccnc2n1CCN1CCN(c2ccc(Oc3ccccc3)cc2)CC1" , if possible.
[out] 20 µM (inactive)

[in] Also "[O-][n+]1onc2c1/C(=N/O)CCC2" , if possible.
[out] > 100 µM (inactive)

[in] Also "COC(=O)[C@H]1[C@H](OC(=O)[C@@H](OC)c2ccccc2)ON2CC[C@@H](OC(=O)c3ccccc3)[C@H]12" , if possible.
[out] 43 µM (inactive)

[in] Also "C=C1c2nc3ccccc3n2C=C(c2ccc(Cl)cc2)N1c1ccc(OCCN2CCOCC2)cc1" , if possible.
[out] 25.2 µM (inactive)

// each compound listed below needs its GI50
1. CC(C)(O)CCc1ccc(O)c2c(=O)c3c(O)c4c(cc3oc12)O[C@H]1OC=C[C@@]41O [AUSTOCYSTIN D]
2. CCN(CC)CCCNc1c2cc(OC)ccc2nc2cccc([N+](=O)[O-])c12
3. NC1CC(=O)c2ccccc21 (stereo not drawn)
4. C1CNCCNCCNCCN1
5. C[Si](C)(C)C1(Sc2ccccc2)SCCCS1

[out]
7.06 µM (inactive)
0.071 µM (active)
> 100 µM (inactive)
> 100 µM (inactive)
46.5 µM (inactive)

// each compound listed below needs its GI50
1. CCOC(=O)c1cc2c(OC(C)=O)ccc(OC(C)=O)c2s1
2. C=C1c2nc3ccccc3n2C=C(c2ccc(C)cc2)N1c1ccc(C)cc1
3. Cn1c(=O)c2c(nc3n(Cc4ccccc4)c(=O)c(NCCCBr)cn23)n(C)c1=O
4. Clc1ccccc1/C=c1\nc(-c2ccccc2)n2c1nc1ccccc12
5. Cc1c(C)c(S(=O)(=O)N(CCCCCN)OCCCN)c(C)c2c1OC(C)(C)CC2

[out]
1: 2.49 µM (inactive); 2: 78.3 µM (inactive); 3: 23.9 µM (inactive); 4: 41.2 µM (inactive); 5: 6.62 µM (inactive)

// each compound listed below needs its GI50
1. COc1ccc2c(C(=O)O)cc3cc(OC)c(OC)cc3c2c1
2. Cc1cc(Cl)ccc1C(=O)c1ccc2ccccc2c1C(=O)O
3. Nc1nc(-c2ccccc2)c(CC(=O)O)s1
4. CC(C#N)c1cn(S(=O)(=O)c2ccccc2)c2ccccc12 (stereo not drawn)
5. CN(C)/C=N/n1c2ccccc2c2ccccc21
6. Nc1nc(NNc2ccccc2F)cc(=O)[nH]1
7. CCOC(=O)C1=NN(c2ccc(C)cc2)C2(c3ccccc3)C=C(c3ccccc3)N(C)CCN12 (stereo not drawn)

[out]
1: > 100 µM (inactive); 2: > 100 µM (inactive); 3: > 100 µM (inactive); 4: > 100 µM (inactive); 5: > 100 µM (inactive); 6: 58.1 µM (inactive); 7: > 100 µM (inactive)

---

# System: OVCAR-5
# TEST_DETAILS: NCI tumour cell line growth inhibition, 48 h
The source made the active and inactive calls. No stated cut-off is given here; in the data, active = GI50 up to about 1.1 µM and inactive = higher. Peptide text beside a SMILES is read from it. * marks the point of attachment. Cbz = O=C(OCc1ccccc1)*
ENDPOINT: GI50

Known GI50 results, listed for orientation:
[in] # get_value(readout='GI50', item= CC(=O)NC(CCCN(Cc1ccccc1)C(=O)N(C)N=O)C(=O)NCc1ccccc1 (stereo unspecified) )
[out] > 100 µM (inactive)

[in] Also "COc1ccc2c(c1)[n+]([O-])c(C(N)=O)c(N)[n+]2[O-]" , if possible.
[out] > 100 µM (inactive)

// each molecule listed below needs its GI50
1. O=C1C2SC34c5c2c2ccccc2n5CCC3CCCN14 (stereo unspecified)
2. Cc1nc2c(=O)[nH]c(=O)nc-2n(CCO)c1C
3. COc1cccc2c1[C@H]1CO[C@H]3C4C[C@H](C(=O)O)C([C@@H](C2)N13)N4C (stereo partly specified)
4. C[Si](C)(C)C1(Sc2ccccc2)SCCCS1
5. COc1cc2c(cc1O)NC(=O)[C@@H]1C[C@@H](O)CN1C2=O
6. Cn1c(=O)oc2cc(C(O)CN3CCN(Cc4ccc5c(c4)OCO5)CC3)ccc21 (stereo unspecified)
7. CCCCc1cc2c(cc1O)CCC1C2CC[C@@]2(C)C1CC[C@@H]2O (stereo partly specified)

[out]
1: > 100 µM (inactive); 2: > 100 µM (inactive); 3: 2.37 µM (inactive); 4: > 100 µM (inactive); 5: > 100 µM (inactive); 6: > 100 µM (inactive); 7: 17.7 µM (inactive)

// each molecule listed below needs its GI50
1. CCOC(=O)/C=C(/N=P(c1ccccc1)(c1ccccc1)c1ccccc1)C(F)(F)F
2. Cc1ccc2c(c1)nc1n2C(c2c(F)cccc2F)SC1 (stereo unspecified)
3. Cc1ccc(/C=C2\CN(C)CC3C2=NN(c2ccccc2)C3c2ccc(C)cc2)cc1 (stereo unspecified)
4. COc1nc(C#CC2CCCCC2)nc(OC)n1
5. COc1cc2cc(C(=O)N3CC(CCl)c4ccc([N+](C)(C)Cc5ccc([N+](=O)[O-])cc5)cc43)[nH]c2c(OC)c1OC (stereo unspecified)
6. CSCCC(NCc1c(O)ccc2c(-c3ccccc3)cc(=O)oc12)C(=O)O (stereo unspecified)

[out]
> 10 µM (inactive)
57.4 µM (inactive)
> 10 µM (inactive)
2.51 µM (inactive)
3.87 µM (inactive)
> 100 µM (inactive)

// each molecule listed below needs its GI50
1. N#Cc1c(NN)nc(NN)c(C#N)c1-c1ccccc1
2. O=C(O)c1ccc(CI)cc1
3. O=C(/N=C1\SCCN1C(=O)C(C(F)(F)F)C(F)(F)F)C(C(F)(F)F)C(F)(F)F

[out]
1: > 100 µM (inactive); 2: 18.7 µM (inactive); 3: > 100 µM (inactive)

// each molecule listed below needs its GI50
1. O=S(=O)(O)CS(=O)(=O)OCCCl
2. NC(=O)NC12CC3CC(CC(F)(C3)C1)C2
3. CCOC(=O)C(C)NC(=O)C(C)NC(=O)C(C)NC(=O)C(C)NC(=O)C(C)NC(=O)C(C)NC(=O)C(C)NC(=O)OCc1ccccc1 (stereo unspecified) (Cbz-AAAAAAA-OEt; configuration not given here)

[out]
["> 100 µM (inactive)", "> 100 µM (inactive)", "> 100 µM (inactive)"]
